# protocol-details: Inhibition of mitochondrial complex 1 in bovine heart mitochondria assessed as effect on rate of NADH oxidation
# Set-up: species or system Bos taurus
IC50 strictly less than 20 nM = t. Otherwise f.

In [3]: df
Out[3]:
                                    molecule  answer_label
 0  C=C(C)[C@H]1Cc2c(ccc3c2O[C@@H]2COc4cc(OC)c(OC)cc4[C@@H]2C3=O)O1             t
 1  CCC(CF)Oc1ccc(COc2cnn(C(C)(C)C)c(=O)c2Cl)cc1 (stereo unspecified)             t
 2  CC(C)(C)c1ccc(CCOc2cnn(C(C)(C)C)c(=O)c2Cl)cc1             f
 3  CC(C)(C)n1ncc(OCc2ccc3ccccc3c2)c(Cl)c1=O             f
 4       CC(C)(C)c1ccc(CCOc2ncnc3ccccc23)cc1             f
 5  CC(C)(C)c1ccc(CSc2cnn(C(C)(C)C)c(=O)c2F)cc1             f
 6  CC(C)(C)n1ncc(OCc2ccc(COCCF)cc2)c(Cl)c1=O             t
 7  CC(C)(C)n1ncc(OCc2ccc3ncccc3c2)c(Cl)c1=O             f
 8  CCCCCCCCCCSC1N=CN(C(C)(C)C)C(=O)C1Cl (stereo unspecified)             f
 9  CC(C)(C)n1ncc(OCc2ccc(CCCCF)cc2)c(Cl)c1=O             t
10  CC(C)(C)c1ccc(CSc2cnn(C(C)(C)C)c(=O)c2Cl)cc1             t
11  CC(C)(C)c1ccc(COc2cnn(C(C)(C)C)c(=O)c2Cl)cc1             f
12  CCCCc1ccc(COc2cnn(C(C)(C)C)c(=O)c2Cl)cc1             t
13  CC(C)(C)n1ncc(OCc2ccc(-c3ccccc3)cc2)c(Cl)c1=O             f
14  CC(C)(C)n1ncc(OCc2ccc(OCCCF)cc2)c(Cl)c1=O             f
15  [2H]C([2H])(Oc1cnn(C(C)(C)C)c(=O)c1Cl)c1ccc(COC([2H])([2H])C([2H])([2H])F)cc1             f
16        CC(C)(C)n1ncc(OCc2ccccc2)c(Cl)c1=O             f
17  Cc1c(SCc2ccc(C(C)(C)C)cc2)cnn(C(C)(C)C)c1=O             f
18  CCCCOc1ccc(COc2cnn(C(C)(C)C)c(=O)c2Cl)cc1             f
19  CC(F)CCc1ccc(COc2cnn(C(C)(C)C)c(=O)c2Cl)cc1 (stereo unspecified)             t
20  CC(C)(C)c1ccc(CNc2cnn(C(C)(C)C)c(=O)c2Cl)cc1             f
21  Cc1c(SCc2ccc(CCCC[18F])cc2)oc2ccccc2c1=O             t
22   Cc1c(SCc2ccc(C(C)(C)C)cc2)oc2ccccc2c1=O             f
23  CC(F)COc1ccc(COc2cnn(C(C)(C)C)c(=O)c2Cl)cc1 (stereo unspecified)             t
24  CC(C)(C)c1ccc(CSc2cnn(C(C)(C)C)c(=O)c2CF)cc1             f
25      [18F]CCCCc1ccc(CCOc2ncnc3ccccc23)cc1             t
